Tested On: T1, WT1 RMF peptide/HLA-A0201 complex (isolated, recombinant, biotinylated) (human)
T1 construct: also called RMF/HLA; RMF/HLA complex
Test Protocol: ELISA as in Example 3; biotinylated peptide/HLA complex coated at 50 nM on Neutravidin plates, IgG titrated, AP-conjugated goat anti-human IgG, RFU
Readout Label: EC50 (read off the curve)

>>> readout_value("Fiwi (IgG1) (antibody, V domains shown) VH: EVQLVESGGGLVKPGGSLRLSCAASGFTFSNYWISWVRQAPGKGLEWVGRIKSKTYGGTTDYAEPVKGRFTISRDDSKNTLYLQMNSLKTEDTAVYYCARGRYPELGYFDLWGQGTLVTVSS VL: QSVLTQPPSVSAAPGQKVTISCSGSSSNIGNNYVSWYQQLPGTAPKLLIYDNNKRPSGIPDRFSGSKSGTSATLGITGLQTEDEADYYCGAWDSYLSVSFVFGGGTKLTVLG")
"~0.3 nM"
>>> readout_value("Aali (IgG1) (antibody, V domains shown) VH: QVQLVESGGGLVKPGGSLRLSCAASGFTFSDHYISWIRQAPGKGLEWVSYISSSGSTTYYAESVKGRFTISRDNAKNSLYLQMNSLRAEDTAVYYCARTYAYRYDFDLWGQGTLVTVSS VL: QSVLTQPPSVSGAPGQRVTISCTGSSSNIGAGYDVHWYQQLPGTAPKLLIYGNSNRPSGVPDRFSGSKSGTSASLAITGLQAEDEADYYCQTWVHSYSTPVFGGGTKLTVLG")
"~0.5 nM"
>>> readout_value("Cyprus (IgG1) (antibody, V domains shown) VH: QVQLVESGGGLVKPGGSLRLSCAASGFTFSDYYMSWIRQAPGKGLEWVSYISSSGSTIYYADSVKGRFTISRDNAKNSLYLQMNSLRAEDTAVYYCARDGLRYFYGFDYWGQGTLVTVSS VL: QSVLTQPPSVSAAPGQKVTISCSGSSSNIGNNYVSWYQQLPGTAPKLLIYDNNKRPSGIPDRFSGSKSGTSATLGITGLQTEDEADYYCQAWVHYSLVHWVFGGGTKLTVLG")
"~0.3 nM"

Which EC50 (read off the curve) reading was recorded for the binder Daniel (IgG1) (antibody, V domains shown) VH: QVQLVQSGAEVKKPGASVKVSCKASGYTFTSYYMHWVRQAPGQGLEWMGIINPSGGSTSYAQKFQGRVTMTRDTSTSTVYMELSSLRSEDTAVYYCAREGYTPGGSYTFDIWGQGTLVTVSS VL: QSVLTQPPSVSAAPGQKVTISCSGSSSNIGNNYVSWYQQLPGTAPKLLIYDNNKRPSGIPDRFSGSKSGTSATLGITGLQTEDEADYYCGSWDGFVSSYSVFGGGTKLTVLG ?
~0.3 nM
